Reference for the values: the supplement of paper PMC10307832

- Test system: UMC-11
- Method: relative viability (nuclei count vs DMSO), 5 days (fraction); higher = more cells survive
- Cond: first compound 0.6325 µM
Recorded metric: relative viability

compound="Cc1csc(=NC2CCCCC2)n1/N=C/c1ccc(O)c(O)c1O [MIM1] + C[C@@H](Oc1cc(-c2cnn(C3CCNCC3)c2)cnc1N)c1c(Cl)ccc(F)c1Cl [Crizotinib] (partner 1 µM)" target_or_test_system=UMC-11 recorded_metric="relative viability" test_value=0.565
compound="Cc1csc(=NC2CCCCC2)n1/N=C/c1ccc(O)c(O)c1O [MIM1] + CC1(C)CCC(c2ccc(Cl)cc2)=C(CN2CCN(c3ccc(C(=O)NS(=O)(=O)c4ccc(N[C@H](CCN5CCOCC5)CSc5ccccc5)c(S(=O)(=O)C(F)(F)F)c4)cc3)CC2)C1 [Navitoclax] (partner 0.5 µM)" target_or_test_system=UMC-11 recorded_metric="relative viability" test_value=0.298
compound="CN1CCN(CCOc2cc(OC3CCOCC3)c3c(Nc4c(Cl)ccc5c4OCO5)ncnc3c2)CC1 [Saracatinib] + Cc1cc(Nc2cc(N3CCN(C)CC3)nc(Sc3ccc(NC(=O)C4CC4)cc3)n2)n[nH]1 [Tozasertib] (partner 0.1 µM)" target_or_test_system=UMC-11 recorded_metric="relative viability" test_value=0.213
compound="Cc1csc(=NC2CCCCC2)n1/N=C/c1ccc(O)c(O)c1O [MIM1] + O=C(c1cc(Cc2n[nH]c(=O)c3ccccc23)ccc1F)N1CCN(C(=O)C2CC2)CC1 [Olaparib] (partner 8 µM)" target_or_test_system=UMC-11 recorded_metric="relative viability" test_value=0.4
